Tested on: HepG2 cells
Test: Cytotoxicity in HepG2 cells (intracellular ATP, ATPlite, 48 h)
Format: cell-based, human
Settings: HepG2 cells; IC50 per ratio column head; unit inferred
The following compounds are listed with their measured pIC50 values.
Remember the convention: pIC50 equals -log10 of concentration in molar.

- COMPOUND: "O=C(O)CCSSc1cccc[n+]1[O-]"
  pIC50: 5.11
- COMPOUND: "Cc1oc(-c2ccc(Cl)cc2)cc1C(=O)NCCC1CCN(CCCCCNC(=O)/C=C/c2ccc(Cl)c(Cl)c2)CC1"
  pIC50: 5.39
- COMPOUND: "CC(C)CCNCc1ccc(OCc2cccc(COc3ccc(CNCCC(C)C)cc3I)c2)c(I)c1"
  pIC50: 5.28
- COMPOUND: "COc1cc(NC(=O)c2sc(-c3ccc(Cl)cc3)cc2NC(=O)c2ccncc2)ccc1OCCN1CCCC1"
  pIC50: 5.49
- COMPOUND: "COc1ccc2c(NN=Cc3ccc(OC)c4ccccc34)cc(C)nc2c1"
  pIC50: 5.10
- COMPOUND: "c1ccc2c(C3CCN(CCCCOc4ccc5c(c4)CCN(CC4CC4)CC5)CC3)c[nH]c2c1"
  pIC50: 5.17
- COMPOUND: "CCc1c(CCNCCCC(C)CCNCCc2ccc(OC)c(OC)c2CC)ccc(OC)c1OC (stereo not drawn)"
  pIC50: 5.22
- COMPOUND: "CC(C)CNCc1cccc(-c2cccc(CN(CCCN3CCN(C)CC3)C(=O)CCC3CCCC3)c2)c1"
  pIC50: 5.34

Proceeding to the next compound to report its pIC50.
### Prompt Answer with pIC50 of CCCCCCC(N)c1ccc(OCCCOc2ccc(C(N)CCCCCC)cc2)cc1 (stereo not drawn) measured for HepG2 cells.
### Response 5.72

###

Measured IC50 at 48 h, listed per entry for reference.
Assay: Cytotoxicity in HepG2 cells (intracellular ATP, ATPlite, 48 h)
Assay type: cell-based, human
Conditions: human, HepG2 cells; IC50 per ratio column head; unit inferred; read-out: Cytotoxicity in HepG2

Some compounds with known IC50 at 48 h results, for comparison:
- CPD SMILES: "COc1cccc(NC(=O)[C@H](C(C)C)n2c(=O)[nH]c3ccccc3c2=O)c1"
  RECORDED METRIC: "IC50 at 48 h"
  RECORDED VALUE: "> 50 µM"
- CPD SMILES: "c1ccc2sc(Sc3ncnc4sccc34)nc2c1"
  RECORDED METRIC: "IC50 at 48 h"
  RECORDED VALUE: "> 25 µM"

In the following, a different compound is considered.
### Prompt Report measured IC50 at 48 h; entry is `Cc1c(Cl)cccc1NC(=S)NN=Cc1ccccn1`
### Response > 25 µM

###

Assay: Cytotoxicity in HepG2 cells (intracellular ATP, ATPlite, 48 h)
Type: cell-based, human
Settings: human, HepG2 cells; IC50 per ratio column head; unit inferred; read-out: Cytotoxicity in HepG2
RECORDED METRIC: IC50 at 48 h

In the examples that follow, each entry is paired with its recorded IC50 at 48 h.
- CPD SMILES: "CC(C)CCNC(=N)Nc1ccc(OCCCCCOc2ccc(NC(=N)NCCC(C)C)cc2)cc1"
  RECORDED VALUE: "> 25 µM"
- CPD SMILES: "Cc1ccc(-n2c(C)nc3c(Nc4ccc(-c5ccncc5)cc4)ncnc32)c(C)c1"
  RECORDED VALUE: "> 25 µM"

### Prompt Quick one: give measured IC50 at 48 h for `Cc1cc(Nc2ccncc2)n2nc(C)c(-c3ccc(Cl)cc3)c2n1`
### Response > 50 µM

### Prompt Note IC50 at 48 h for the molecule shown: `CCc1nn2c(Nc3ccncc3)cc(C)nc2c1-c1ccccc1`
### Response > 25 µM
